Readings of pIC50 for the listed compounds
# ASSAYED_TARGET: human liver FBPase (Homo sapiens, UniProt P09467)
# METHOD: FBPase assay: inorganic phosphate release (malachite green)
# CONDITION_SUMMARY: recombinant human liver FBPase, 50 μM fructose-1,6-bisphosphate, read-out at 620 nm
To interpret pIC50, take it as minus log10 of a concentration measured in moles per litre.

1. CCc1sc(NC(=O)NS(=O)(=O)c2cc(C)c(CCOC)s2)nc1C :: 6.47
2. COc1cccc2cc(S(=O)(=O)NC(=O)Nc3ncc(Br)s3)sc12 :: 6.98
3. COC(=O)c1ccc2c(c1)c(S(=O)(=O)NC(=O)Nc1ncc(Br)s1)cn2C :: 6.14
4. CCc1sc(NC(=O)NS(=O)(=O)c2cc(C)c(CCOC)s2)nc1C(C)C :: 6.44
5. COC(=O)c1ccc2scc(S(=O)(=O)NC(=O)Nc3ncc(Br)s3)c2c1 :: 6.35

Return pIC50 (reported value) for this compound: CCc1sc(NC(=O)NS(=O)(=O)c2csc(C)c2)nc1C(C)C
6.77

Return pIC50 (reported value) for this compound: COc1sc(NC(=O)NS(=O)(=O)c2csc(C)c2)nc1C
6.23

Return pIC50 (reported value) for this compound: CCc1nc(NC(=O)NS(=O)(=O)c2cc(C)c(CCOC)s2)sc1Br
6.81

Return pIC50 (reported value) for this compound: Cc1cc(S(=O)(=O)NC(=O)Nc2nc(C)c(SC(F)(F)F)s2)sc1CCO
6.75

* * *

# ASSAYED_TARGET: human liver FBPase (Homo sapiens, UniProt P09467)
# Sequence (P09467 2-338 limits assumed): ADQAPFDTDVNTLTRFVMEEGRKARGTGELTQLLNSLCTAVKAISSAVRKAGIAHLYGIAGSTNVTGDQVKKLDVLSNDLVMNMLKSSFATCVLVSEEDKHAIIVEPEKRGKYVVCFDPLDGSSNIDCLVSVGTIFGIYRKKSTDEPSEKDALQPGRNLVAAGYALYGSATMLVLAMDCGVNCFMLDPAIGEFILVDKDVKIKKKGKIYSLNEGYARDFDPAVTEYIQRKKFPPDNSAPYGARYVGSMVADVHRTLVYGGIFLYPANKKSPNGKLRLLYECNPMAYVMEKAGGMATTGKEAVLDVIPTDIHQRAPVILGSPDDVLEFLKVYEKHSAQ
# METHOD: FBPase assay: inorganic phosphate release (malachite green)
# CONDITION_SUMMARY: recombinant human liver FBPase, 50 μM fructose-1,6-bisphosphate, read-out at 620 nm
READOUT: log10(IC50) (log10 of the value in nM)
Recall that a logarithmic scale is used here: each number is log10 of IC50 in nM.

Answered cases to consult:
1) O=C(Nc1ncc(Br)s1)NS(=O)(=O)c1csc2ccccc12 :: 2.33
2) COC(=O)c1ccc2c(S(=O)(=O)NC(=O)Nc3ncc(Br)s3)cn(C)c2c1 :: 2.65
3) COc1ccc(Cl)c2sc(NC(=O)NS(=O)(=O)c3cc(C)c(CCO)s3)nc12 :: 1.58
4) CCc1nc(NC(=O)NS(=O)(=O)c2csc(C)c2)sc1CC :: 2.33
5) COc1sc(NC(=O)NS(=O)(=O)c2cn(C)c3c(OCC(N)=O)cccc23)nc1C :: 2.88

Return log10(IC50) (reported value) for this compound: Cn1cc(S(=O)(=O)NC(=O)Nc2ncc(Br)s2)c2cccc(OCC(N)=O)c21
2.14

Return log10(IC50) (reported value) for this compound: COc1cccc2sc(NC(=O)NS(=O)(=O)c3cc(C)c(CCO)s3)nc12
2.15

Return log10(IC50) (reported value) for this compound: COc1ccc2cc(S(=O)(=O)NC(=O)Nc3ncc(Br)s3)sc2c1
1.94

Return log10(IC50) (reported value) for this compound: CCc1sc(NC(=O)NS(=O)(=O)c2cc(C)c(CCOC)s2)nc1-c1ccccc1
2.35

* * *

# ASSAYED_TARGET: human liver FBPase (Homo sapiens, UniProt P09467)
# Construct: made in house; host or cells: E. coli
# Sequence (P09467 2-338 limits assumed): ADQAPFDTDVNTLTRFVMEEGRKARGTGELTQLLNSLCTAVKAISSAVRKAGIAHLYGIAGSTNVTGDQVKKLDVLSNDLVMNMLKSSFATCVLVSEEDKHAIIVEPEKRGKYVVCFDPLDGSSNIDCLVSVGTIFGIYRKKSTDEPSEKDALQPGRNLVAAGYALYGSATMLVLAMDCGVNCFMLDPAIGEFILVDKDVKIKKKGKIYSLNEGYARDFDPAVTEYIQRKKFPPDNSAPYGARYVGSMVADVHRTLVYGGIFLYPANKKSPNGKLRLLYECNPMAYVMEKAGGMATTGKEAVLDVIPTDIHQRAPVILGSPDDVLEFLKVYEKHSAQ
# METHOD: FBPase assay: inorganic phosphate release (malachite green)
# Assay type: biochemical
# CONDITION_SUMMARY: recombinant human liver FBPase, 50 μM fructose-1,6-bisphosphate, read-out at 620 nm
Readings of pIC50 for the listed molecules
To interpret pIC50, take it as minus log10 of a concentration measured in moles per litre.

1) O=C(Nc1ncc(Br)s1)NS(=O)(=O)c1cc2cccc(-c3ccncc3)c2s1 [Example 22] :: 6.36

Return pIC50 (reported value) for this molecule: Cc1noc(C)c1-c1ccc2sc(S(=O)(=O)NC(=O)Nc3ncc(Br)s3)cc2c1 [Example 16]
6.08

Return pIC50 (reported value) for this molecule: COCc1oc(S(=O)(=O)NC(=O)Nc2nc(C)c(Br)s2)cc1C [Example 35]
6.59

Return pIC50 (reported value) for this molecule: O=C(Nc1ncc(Br)s1)NS(=O)(=O)c1csc2c(Cl)cccc12 [Example 18]
6.68

Return pIC50 (reported value) for this molecule: Cc1ccc2scc(S(=O)(=O)NC(=O)Nc3ncc(Br)s3)c2c1 [Example 11]
6.20

Return pIC50 (reported value) for this molecule: O=C(Nc1ncc(Br)s1)NS(=O)(=O)c1cc2ccccc2s1 [Example 2]
6.36

Return pIC50 (reported value) for this molecule: COCCn1cc(S(=O)(=O)NC(=O)Nc2ncc(Br)s2)c2ccccc21 [Example 31]
5.65

Return pIC50 (reported value) for this molecule: COc1cccc2c(S(=O)(=O)NC(=O)Nc3ncc(Br)s3)c[nH]c12 [Example 43]
5.39

Return pIC50 (reported value) for this molecule: COc1cnc(NC(=O)NS(=O)(=O)c2cn(C)c3c(OCCOC(C)=O)cccc23)s1 [Example 46]
5.46

Return pIC50 (reported value) for this molecule: COCCc1sc(S(=O)(=O)NC(=O)Nc2nc3c(OC)cccc3s2)cc1C [Example 89]
6.58

Return pIC50 (reported value) for this molecule: CCc1nc(NC(=O)NS(=O)(=O)c2csc(C)c2)sc1Br [Example 57]
6.73

Return pIC50 (reported value) for this molecule: COc1ccc2cc(S(=O)(=O)NC(=O)Nc3ncc(Br)s3)sc2c1Br [Example 15]
6.85

Return pIC50 (reported value) for this molecule: COCc1oc(S(=O)(=O)NC(=O)Nc2ncc(Br)s2)cc1C [Example 36]
6.50

Return pIC50 (reported value) for this molecule: COc1cccc2cc(S(=O)(=O)NC(=O)Nc3ncc(Br)s3)n(C)c12 [Example 40]
6.48

Return pIC50 (reported value) for this molecule: COCCc1sc(S(=O)(=O)NC(=O)Nc2nc3cc(OC)ccc3s2)cc1C [Example 45]
6.40

Return pIC50 (reported value) for this molecule: O=C(Nc1ncc(Br)s1)NS(=O)(=O)c1cc2cccc(Cl)c2s1 [Example 19]
6.57

Return pIC50 (reported value) for this molecule: COCc1nc(NC(=O)NS(=O)(=O)c2cc(C)c(CCOC(C)=O)s2)sc1SC [Example 87]
6.30

Return pIC50 (reported value) for this molecule: CSc1sc(NC(=O)NS(=O)(=O)c2cc(C)c(CCOC(C)=O)s2)nc1C [Example 85]
6.80

* * *

# ASSAYED_TARGET: UniProt:P09467
# METHOD: FBPase assay: inorganic phosphate release (malachite green)
# CONDITION_SUMMARY: recombinant human liver FBPase, 50 μM fructose-1,6-bisphosphate, read-out at 620 nm
READOUT: IC50 (nM)
Numbers only here, please. The scale is nM.

1. CCc1nc(NC(=O)NS(=O)(=O)c2cc(CCOC)c(C)s2)sc1Br :: 434
2. Cn1cc(S(=O)(=O)NC(=O)Nc2ncc(Br)s2)c2cccc(OCCO)c21 :: 104
3. O=C(Nc1ncc(Br)s1)NS(=O)(=O)c1csc2ccc(Cl)cc12 :: 370
4. COCCOc1cccc2c(S(=O)(=O)NC(=O)Nc3ncc(Br)s3)cn(C)c12 :: 375
5. Cn1cc(S(=O)(=O)NC(=O)Nc2ncc(Br)s2)c2ccccc21 :: 385

Send back UniProt:P09467 IC50 of CCOC(=O)COc1cccc2c(S(=O)(=O)NC(=O)Nc3ncc(Br)s3)cn(C)c12 only.
212

Send back UniProt:P09467 IC50 of Cc1cc(S(=O)(=O)NC(=O)Nc2nc3c(C)cccc3s2)sc1CCO only.
64

Send back UniProt:P09467 IC50 of Cn1cc(S(=O)(=O)NC(=O)Nc2ncc(Br)s2)c2ccc(C#N)cc21 only.
740

Send back UniProt:P09467 IC50 of Cn1cc(S(=O)(=O)NC(=O)Nc2ncc(Br)s2)c2cccc(Br)c21 only.
296

Send back UniProt:P09467 IC50 of COCCc1sc(S(=O)(=O)NC(=O)Nc2nc(-c3ccccc3)c(C)s2)cc1C only.
160

Send back UniProt:P09467 IC50 of COc1ccc2scc(S(=O)(=O)NC(=O)Nc3ncc(Br)s3)c2c1 only.
122

Send back UniProt:P09467 IC50 of COCCc1sc(S(=O)(=O)NC(=O)Nc2nc(C)c(OC)s2)cc1C only.
637

Send back UniProt:P09467 IC50 of Cc1c(S(=O)(=O)NC(=O)Nc2ncc(Br)s2)sc2ccc(Br)cc12 only.
1470

Send back UniProt:P09467 IC50 of COc1cnc(NC(=O)NS(=O)(=O)c2cn(C)c3c(OCCO)cccc23)s1 only.
734

Reference source for all entries: patent US7973051B2
